# Assayed target: T1, human ROR2 expressed on the cell surface (human, UniProt Q01974 34-943)
# T1 construct: Endogenous ROR2 of human tumour cell lines; also called cell surface ROR2; ROR2 on tumour cell lines
# T1 sequence (Q01974 34-943 limits assumed): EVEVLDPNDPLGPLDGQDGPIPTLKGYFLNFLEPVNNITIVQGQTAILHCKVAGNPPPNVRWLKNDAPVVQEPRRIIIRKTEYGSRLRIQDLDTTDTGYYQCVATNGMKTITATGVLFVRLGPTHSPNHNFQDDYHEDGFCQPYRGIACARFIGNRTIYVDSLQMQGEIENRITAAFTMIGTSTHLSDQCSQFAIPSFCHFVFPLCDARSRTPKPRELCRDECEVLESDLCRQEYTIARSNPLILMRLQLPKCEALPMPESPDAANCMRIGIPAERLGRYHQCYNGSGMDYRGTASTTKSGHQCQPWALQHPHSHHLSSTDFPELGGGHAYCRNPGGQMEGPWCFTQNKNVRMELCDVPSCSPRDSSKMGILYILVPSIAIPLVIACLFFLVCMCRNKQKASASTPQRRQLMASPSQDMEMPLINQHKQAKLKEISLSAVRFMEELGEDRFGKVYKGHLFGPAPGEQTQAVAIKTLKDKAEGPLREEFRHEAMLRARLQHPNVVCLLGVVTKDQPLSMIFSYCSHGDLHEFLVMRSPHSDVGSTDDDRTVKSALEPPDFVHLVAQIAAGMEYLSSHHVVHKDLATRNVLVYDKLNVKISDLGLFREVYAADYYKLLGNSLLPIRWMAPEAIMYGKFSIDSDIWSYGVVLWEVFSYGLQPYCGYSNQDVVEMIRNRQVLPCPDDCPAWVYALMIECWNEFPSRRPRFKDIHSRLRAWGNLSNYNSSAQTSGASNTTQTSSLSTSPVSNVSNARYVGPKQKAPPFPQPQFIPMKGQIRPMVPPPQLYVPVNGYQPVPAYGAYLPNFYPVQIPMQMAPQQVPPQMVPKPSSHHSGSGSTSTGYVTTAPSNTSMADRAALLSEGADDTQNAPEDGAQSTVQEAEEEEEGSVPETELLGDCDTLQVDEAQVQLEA
# Experimental details: flow cytometry, SKES-1 cells (EW/PNET)
# Parameters: unit not given here
binding intensity: recorded values
# respond with the number and nothing more

Example entries and their recorded answers appear below.
{"Binder": "ROR2-241 full length human IgG1 antibody (antibody, V domains shown) VH: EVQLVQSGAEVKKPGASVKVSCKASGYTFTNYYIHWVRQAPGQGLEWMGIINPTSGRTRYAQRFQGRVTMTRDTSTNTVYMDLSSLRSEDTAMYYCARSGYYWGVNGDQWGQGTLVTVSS VL: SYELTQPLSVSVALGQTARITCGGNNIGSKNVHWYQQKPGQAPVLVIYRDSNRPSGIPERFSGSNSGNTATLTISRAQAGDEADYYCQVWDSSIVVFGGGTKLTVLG", "binding intensity": 12}
{"Binder": "ROR2-23 full length human IgG1 antibody (antibody, V domains shown, The light chain of clone 023 is labelled kappa; also called clone #23; clone #023 IgG1) VH: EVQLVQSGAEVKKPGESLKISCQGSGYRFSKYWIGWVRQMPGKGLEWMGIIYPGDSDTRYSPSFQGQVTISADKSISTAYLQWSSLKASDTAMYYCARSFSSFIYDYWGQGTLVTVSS VL: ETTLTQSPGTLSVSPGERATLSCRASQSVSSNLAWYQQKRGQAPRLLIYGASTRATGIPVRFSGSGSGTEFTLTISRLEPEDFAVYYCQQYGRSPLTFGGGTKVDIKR", "binding intensity": 22}
{"Binder": "ROR2-240 full length human IgG1 antibody (antibody, V domains shown, also called clone #240 IgG1) VH: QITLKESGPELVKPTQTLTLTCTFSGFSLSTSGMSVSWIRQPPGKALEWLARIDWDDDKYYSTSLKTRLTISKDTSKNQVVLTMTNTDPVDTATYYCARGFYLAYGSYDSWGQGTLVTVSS VL: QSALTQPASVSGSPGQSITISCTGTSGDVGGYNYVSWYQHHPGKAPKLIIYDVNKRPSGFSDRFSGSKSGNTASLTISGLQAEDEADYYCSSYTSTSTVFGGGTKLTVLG", "binding intensity": 5}

Just so you know, measured binding intensity for ROR2-27 full length human IgG1 antibody (antibody, V domains shown, also called clone #27; clone #027 IgG1) VH: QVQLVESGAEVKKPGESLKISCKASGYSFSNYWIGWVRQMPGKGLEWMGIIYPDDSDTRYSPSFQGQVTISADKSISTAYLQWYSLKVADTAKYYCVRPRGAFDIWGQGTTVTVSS VL: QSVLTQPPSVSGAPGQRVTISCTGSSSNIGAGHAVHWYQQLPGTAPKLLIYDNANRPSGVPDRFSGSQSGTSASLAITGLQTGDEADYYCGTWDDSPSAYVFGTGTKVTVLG came out at 12

Just so you know, measured binding intensity for ROR2-90 full length human IgG1 antibody (antibody, V domains shown, also called clone #90; antibody #90) VH: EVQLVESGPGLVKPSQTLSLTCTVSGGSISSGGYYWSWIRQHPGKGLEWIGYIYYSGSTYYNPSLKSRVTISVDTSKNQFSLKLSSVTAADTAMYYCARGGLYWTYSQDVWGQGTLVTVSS VL: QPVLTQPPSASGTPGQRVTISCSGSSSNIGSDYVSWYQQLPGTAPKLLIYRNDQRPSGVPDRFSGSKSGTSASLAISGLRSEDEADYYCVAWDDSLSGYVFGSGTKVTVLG came out at 28
